pIC50 values for Vascular endothelial growth factor receptor 2 (Homo sapiens, UniProt P35968), compiled from several publications.
pIC50: −log10 of the molar value.

| chemical smiles | result qualifier | pIC50 |
| --- | --- | --- |
| Cc1cccc2[nH]c(-c3n[nH]c4ncc(-c5cncc6ccccc56)cc34)nc12 | = | 5.00 |
| COc1cc2ncnc(Nc3cccc(Cl)c3F)c2cc1CN1CCC[C@@H]1C(=O)N(C)C | < | 5.00 |
| COc1nc(Nc2ccc(N3CCN(C)CC3)cc2)ncc1C(=O)Nc1cc(C(=O)Nc2cccc(C(F)(F)F)c2F)ccc1C | = | 6.59 |
| Nc1ncnc2snc(-c3ccc([N+](=O)[O-])cc3)c12 | < | 4.30 |
| Cc1nn(-c2ccnc(Nc3ccc4c(c3)c(C)c(C)n4C)n2)cc1CN1CC(O)C1 | = | 6.19 |
